# testSummary: chemical genetic growth profiling, strain panel (AID 1159580);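 also: tested at 20 µM; growth read once vehicle control cultures reached saturation at 30 °C; 1 = growth at the plate median or of vehicle wells; lower values mean less growth of the strain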
# conditions: S. cerevisiae deletion strains, growth OD, locus YEL003W, strain gim4
Among all 5,500 compounds or so, about 2,000 (36%) were called active. Not shown: some 18% with an inconclusive outcome. Rule as the data show it: active = normalized growth mostly below about 0.91 (no sharp cut-off); inconclusive = no clear call, values can overlap the other calls; inactive = mostly above about 0.92. The list shows a part of the results.
In this exercise, the only acceptable responses are active, inactive

Sample answers from the record:
Nc1ccncc1: inactive
O=C(O)c1ccccc1C(=O)Nc1ccc(S(=O)(=O)Nc2nccs2)cc1: inactive
COc1ccc(C(=O)CC(=O)c2ccc(C(C)(C)C)cc2)cc1: inactive
COc1cc([C@@H]2c3cc4c(cc3[C@H](OC(C)=O)[C@H]3COC(=O)[C@@H]23)OCO4)cc(OC)c1OC: inactive
CCCC(CCC)C(=O)O: inactive
CO[C@]12C[C@@H](COC(=O)c3cncc(Br)c3)CN(C)[C@@H]1Cc1cn(C)c3cccc2c13: inactive
Nc1cc(-c2ccncc2)c[nH]c1=O: active
CN(C)N=Nc1nc[nH]c1C(N)=O: inactive

Hello, I am checking results. What call was entered for COc1cc(S(C)=O)ccc1-c1nc2ncccc2[nH]1 (stereo not given) ? inactive

Hello, I am checking results. What call was entered for `Cc1nc2ccccn2c(=O)c1CCN1CCC(C(=O)c2ccc(F)cc2)CC1` ? inactive

----------
# testSummary: chemical genetic growth profiling, strain panel (AID 1159580);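 also: tested at 20 µM; growth read once vehicle control cultures reached saturation at 30 °C; 1 = growth at the plate median or of vehicle wells; lower values mean less growth of the strain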
# conditions: S. cerevisiae deletion strains, growth OD, locus YHR027C, strain rpn1, active compounds read low
Among all 5,500 compounds or so, about 2,000 (36%) were called active. Inconclusive results (about 18%) are left out. The list shows a part of the results.
I'd be grateful if you could share measured normalized growth for these entries.
One number for each entry.

Look over these answered cases.
CCCCS(=N)(=O)CCC(N)C(=O)O (stereo not drawn): 0.99
CC1(C)C(O)CC(O)C2(C)C1CC(O)C1(C)C2CCC2(C)C(c3ccoc3)OC(=O)C3OC321 (stereo not drawn): 1
N[C@H](Cc1ccccc1)C(=O)O: 0.996
CC(=O)Nc1nnc(S(N)(=O)=O)s1: 0.999
NC(Cc1ccc(F)cc1)C(=O)O (stereo not drawn): 1.01
NC(=O)c1ncn(C2O[C@H](CO)[C@@H](O)[C@H]2O)c1N (stereo partly drawn): 1.03
CCCC(CCC)C(=O)O: 1.03

Next item in the queue.
# query: normalized growth of entry `N[C@H](Cc1cc(I)c(Oc2ccc(O)c(I)c2)c(I)c1)C(=O)O` 0.997

----------
# testSummary: chemical genetic growth profiling, strain panel (AID 1159580);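 also: tested at 20 µM; growth read once vehicle control cultures reached saturation at 30 °C; 1 = growth at the plate median or of vehicle wells; lower values mean less growth of the strain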
# conditions: S. cerevisiae deletion strains, growth OD, locus YBR023C, strain chs3
The campaign covered roughly 5,500 compounds. About 2,000 (36%) were called active. Roughly 18% stayed inconclusive and do not appear here. Rule as the data show it: active = normalized growth mostly below about 0.91 (no sharp cut-off); inconclusive = no clear call, values can overlap the other calls; inactive = mostly above about 0.92. Some of the results follow.
In this exercise, the only acceptable responses are true (1) for active, false (0) for inactive

Sample answers from the record:
CC(CCC(=O)O)[C@H]1CCC2C3CC[C@@H]4C[C@H](O)CC[C@]4(C)C3C[C@H](O)[C@@]21C (stereo not given in full): false (0)
Nc1cc(-c2ccncc2)c[nH]c1=O: true (1)
CCC(=O)Nc1ccc(Cl)c(Cl)c1: false (0)

Hello, I am checking results. What call was entered for `Nc1ccncc1` ? false (0)

Hello, I am checking results. What call was entered for C[C@H](CCC(=O)O)[C@H]1CCC2C3C(CC[C@@]21C)[C@@]1(C)CC[C@@H](O)C[C@H]1C[C@H]3O (stereo not given in full) ? false (0)

Hello, I am checking results. What call was entered for CC(=O)OCC(=O)[C@@]1(O)[C@H](OC(C)=O)CC2C3CCC4=CC(=O)C=C[C@]4(C)[C@@]3(F)[C@@H](O)C[C@@]21C (stereo not given in full) ? false (0)

Hello, I am checking results. What call was entered for `O=[N+]([O-])c1cccc2c(Br)[nH]nc12` ? false (0)

Hello, I am checking results. What call was entered for `CN(C)C(=O)Nc1ccc(Cl)c(Cl)c1` ? false (0)
